Experiment: Cmax in cynomolgus monkey at 10 mg/kg, po by LC-MS/MS analysis
Assay type: ADME, organism-based, Macaca fascicularis
Parameters: route oral, dose 10 mg/kg
Details: in vivo
MEASURED ENDPOINT: Cmax (ng/mL)

1. CCCCN(c1nc2c(C(=O)O)cccc2o1)[C@H](C)c1ccc(-c2cc(Cl)ccc2-c2nc(=O)o[nH]2)cc1
2. Cc1ccc(-c2nc(=O)o[nH]2)c(-c2ccc([C@@H](C)N(CC3CC3)c3nc4c(C(=O)O)cccc4o3)cc2)c1
IN: Rank 1 against 2 by their Cmax values and give the higher one. Indicate which entry you chose by stating its label.
OUT: 2

* * *

Experiment: AUC (0 to infinity) in cynomolgus monkey at 1 mg/kg, po administered as cassette dose by LC-MS/MS analysis
Type: ADME, organism-based, Macaca fascicularis
Parameters: time infinity, route oral, dose 1 mg/kg
Conditions: in vivo
MEASURED ENDPOINT: AUC(0-inf) (ng·h/mL)

{"SMILES STR": "CCCCN(c1nc2c(CO)cccc2o1)[C@H](C)c1ccc(-c2ccccc2-c2nnn[nH]2)cc1", "NUMERIC READOUT": 20}
{"SMILES STR": "C[C@H](c1ccc(-c2cc(Cl)ccc2-c2nc(=O)o[nH]2)cc1)N(CC1CC1)c1nc2c(C(=O)O)cccc2o1", "NUMERIC READOUT": 1300}
{"SMILES STR": "CCCCN(c1nc2c(C(=O)NC)cccc2o1)[C@H](C)c1ccc(-c2ccccc2-c2nnn[nH]2)cc1", "NUMERIC READOUT": 25.7}

a. CCCCN(c1nc2c(C(=O)NS(C)(=O)=O)cccc2o1)[C@H](C)c1ccc(-c2ccccc2-c2nnn[nH]2)cc1
b. CCCCN(c1nc2c(NS(C)(=O)=O)cccc2o1)[C@H](C)c1ccc(-c2ccccc2-c2nnn[nH]2)cc1
c. CCCCN(c1nc2c(NC(C)=O)cccc2o1)[C@H](C)c1ccc(-c2ccccc2-c2nnn[nH]2)cc1
IN: Your job: order these 3 records by AUC(0-inf), ascending. Returns: the labels listed in the requested order.
OUT: a, c, b
